System: A498
protocol text: CellTiter-Glo cytotoxicity, cancer cell line panel
Type: cell-based
experimental conditions: Homo sapiens; A498, Renal cell carcinoma
quantity name: IC50 (µM)
Give bare numbers, in µM.

Query: IC50; subject: N=C(N)c1ccc(OCCCCCOc2ccc(C(=N)N)nc2)cc1
Result: 1.17

* * *

Test system: HUH-1
protocol text: CellTiter-Glo cytotoxicity, cancer cell line panel
Type: cell-based
experimental conditions: Homo sapiens; HUH-1, Hepatocellular carcinoma
quantity name: pIC50
One number for each entry, as −log10 of the molar value.

Query: pIC50; subject: N=C(N)c1ccc(OCCCCCOc2ccc(C(=N)N)nc2)cc1
Result: 5.49

* * *

Test system: DLD-1
protocol text: CellTiter-Glo cytotoxicity, cancer cell line panel
Assay type: cell-based
experimental conditions: Homo sapiens; DLD-1, Colon adenocarcinoma
quantity name: IC50 (µM)
One number for each entry, in µM.

Query: IC50; subject: N=C(N)c1ccc(OCCCCCOc2ccc(C(=N)N)nc2)cc1
Result: 3.11

* * *

System: OVCAR-3
protocol text: CellTiter-Glo cytotoxicity, cancer cell line panel
Type: cell-based
experimental conditions: Homo sapiens; OVCAR-3, High grade ovarian serous adenocarcinoma
quantity name: IC50 (nM)
Answers are plain numbers, in nM.

Query: IC50; subject: N=C(N)c1ccc(OCCCCCOc2ccc(C(=N)N)nc2)cc1 [Compound 1]
Result: 1960

* * *

Test system: HLF
protocol text: CellTiter-Glo cytotoxicity, cancer cell line panel
Type: cell-based
experimental conditions: Hepatocellular carcinoma
quantity name: IC50 (nM)
One number for each entry, in nM.

Query: IC50; subject: N=C(N)c1ccc(OCCCCCOc2ccc(C(=N)N)nc2)cc1
Result: 2040

* * *

Tested on: MCF7
protocol text: CellTiter-Glo cytotoxicity, cancer cell line panel / breast cancer study
Assay type: cell-based
experimental conditions: Homo sapiens; MCF7, Invasive ductal carcinoma
quantity name: IC50 (nM)
Answers are plain numbers, in nM.

Query: IC50; subject: N=C(N)c1ccc(OCCCCCOc2ccc(C(=N)N)nc2)cc1
Result: 930

* * *

Test system: JHH-5
protocol text: CellTiter-Glo cytotoxicity, cancer cell line panel
Type: cell-based
experimental conditions: JHH-5, Hepatocellular carcinoma
quantity name: pIC50
One number for each entry, as −log10 of the molar value.

Query: pIC50; subject: N=C(N)c1ccc(OCCCCCOc2ccc(C(=N)N)nc2)cc1
Result: 6.19

* * *

Tested on: SNU-449
protocol text: CellTiter-Glo cytotoxicity, cancer cell line panel
Assay type: cell-based
experimental conditions: Homo sapiens; SNU-449, Hepatocellular carcinoma
quantity name: pIC50
Give bare numbers, as −log10 of the molar value.

Query: pIC50; subject: N=C(N)c1ccc(OCCCCCOc2ccc(C(=N)N)nc2)cc1
Result: 5.80

* * *

Tested on: HEP3B2.7-1
protocol text: CellTiter-Glo cell viability, liver cell lines, 8 days
Assay type: cell-based
experimental conditions: HEP3B2.7-1, Table 4
Assign IC50 to each entry below.
One number for each entry, in µM.

{"molecule": "N=C(N)c1ccc(OCCCCCOc2ccc(C(=N)N)cc2)cc1 [Pentamidine, 1,5-bis(4-amidinophenoxy)pentane]", "IC50, µM": 0.28}

Note: attention shifts to another entry.
Query: IC50; subject: N=C(N)c1ccc(OCCCCCOc2ccc(C(=N)N)nc2)cc1 [Compound 1]
Result: 0.32

* * *

Test system: JHH-4
protocol text: CellTiter-Glo cytotoxicity, cancer cell line panel
Format: cell-based
experimental conditions: JHH-4, Hepatocellular carcinoma
quantity name: IC50 (nM)
One number for each entry, in nM.

Query: IC50; subject: N=C(N)c1ccc(OCCCCCOc2ccc(C(=N)N)nc2)cc1
Result: 1270

* * *

Tested on: JHH-6
protocol text: CellTiter-Glo cytotoxicity, cancer cell line panel
Type: cell-based
experimental conditions: JHH-6, Hepatocellular carcinoma
quantity name: pIC50
One number for each entry, as −log10 of the molar value.

Query: pIC50; subject: N=C(N)c1ccc(OCCCCCOc2ccc(C(=N)N)nc2)cc1
Result: 6.42

* * *

System: BT-474
protocol text: CellTiter-Glo cytotoxicity, cancer cell line panel
Format: cell-based
experimental conditions: Homo sapiens; BT-474, Invasive ductal carcinoma
quantity name: pIC50
Numbers only, as −log10 of the molar value.

Query: pIC50; subject: N=C(N)c1ccc(OCCCCCOc2ccc(C(=N)N)nc2)cc1
Result: 4.80

* * *

Assign pIC50 to each entry below.
Test system: SK-HEP-1
protocol text: CellTiter-Glo cell viability, liver cell lines, 8 days
Assay type: cell-based
experimental conditions: Homo sapiens, SK-HEP1, SK-HEP-1, first listing in Table 4
Numbers only, as −log10 of the molar value.

{"smiles data": "N=C(N)c1ccc(OCCCCCOc2ccc(C(=N)N)nc2)cc1", "pIC50": 5.85}

Query: pIC50; subject: N=C(N)c1ccc(OCCCCCOc2ccc(C(=N)N)cc2)cc1
Result: 5.84

* * *

System: Caki-1
protocol text: CellTiter-Glo cytotoxicity, cancer cell line panel
Assay type: cell-based
experimental conditions: Homo sapiens; Caki-1, Clear cell renal cell carcinoma
quantity name: IC50
Report as: number unit

Query: IC50; subject: N=C(N)c1ccc(OCCCCCOc2ccc(C(=N)N)nc2)cc1 [Compound 1]
Result: 3.42 µM

* * *

Test system: OS-RC-2
protocol text: CellTiter-Glo cytotoxicity, cancer cell line panel
Format: cell-based
experimental conditions: Homo sapiens; OS-RC-2, Renal cell carcinoma
quantity name: pIC50
Numbers only, as −log10 of the molar value.

Query: pIC50; subject: N=C(N)c1ccc(OCCCCCOc2ccc(C(=N)N)nc2)cc1 [Compound 1]
Result: 5.77

* * *

Test system: SNU-398
protocol text: CellTiter-Glo cytotoxicity, cancer cell line panel
Assay type: cell-based
experimental conditions: Homo sapiens; SNU-398, Hepatocellular carcinoma
quantity name: pIC50
One number for each entry, as −log10 of the molar value.

Query: pIC50; subject: N=C(N)c1ccc(OCCCCCOc2ccc(C(=N)N)nc2)cc1
Result: 6.66

* * *

Test system: NCI-H69
protocol text: CellTiter-Glo luminescent cell viability assay
Assay type: cell-based
experimental conditions: Homo sapiens
pIC50: −log10 of the molar value.
Param threshold (6) applies to pIC50; output Criterion met when value >= threshold, Criterion not met when value < threshold.

Use the examples below as a reference point.
{"molecule": "N=C(N)c1cncc(CCCCCCCc2cncc(C(=N)N)c2)c1 [Compound 9]", "system": "NCI-H69", "cat": "Criterion not met"}
{"molecule": "N=C(N)c1cccc(OCCCCCOc2ccnc(C(=N)N)c2)c1 [Compound 15]", "system": "NCI-H69", "cat": "Criterion met"}
{"molecule": "N=C(N)c1ccc(O[C@H]2CC[C@H](Oc3ccc(C(=N)N)nc3)CC2)cc1 [Compound 13]", "system": "NCI-H69", "cat": "Criterion not met"}

Query: Determine whether measured pIC50 meets or exceeds 6 for N=C(N)c1ccc(CCCCCCCc2ccc(C(=N)N)cn2)nc1 [Compound 10]
Result: Criterion not met

Query: Also, N=C(N)c1ccc(OCCCCCOc2ccnc(C(=N)N)c2)cn1 [Compound 12] please.
Result: Criterion not met

Query: Also, N=C(N)c1ccc(OCCCCCOc2cnc(C(=N)N)nc2)cc1 [Compound 3] please.
Result: Criterion not met

Query: Also, N=C(N)c1ccc(OCCCCCOc2ccc(C(=N)N)cn2)cc1 [Compound 2] please.
Result: Criterion not met

Query: Also, N=C(N)c1cccc(OCCCCCOc2ccc(C(=N)N)nc2)c1 [Compound 11] please.
Result: Criterion met

* * *

Assign microsomal CLint to each entry below.
protocol text: Human microsomal CL rate
Format: in vitro ADME
experimental conditions: human microsomes
Numbers only, in µL/min/mg.

{"smiles data": "N=C(N)c1ccc(OCCCCOc2ccc(C(=N)N)nc2)cc1", "val": 3.9}
{"smiles data": "N=C(N)c1cccc(OCCCCCOc2ccnc(C(=N)N)c2)c1", "val": 3.2}
{"smiles data": "N=C(N)c1cc(OCCCCCOc2ccnc(C(=N)N)c2)ccn1", "val": 5.1}
{"smiles data": "N=C(N)c1ccc(OCCCCCOc2ccc(C(=N)N)nc2)cc1", "val": 13.6}
{"smiles data": "N=C(N)c1ccc(OCCCCOc2ccc(C(=N)N)nc2)cn1", "val": 4.6}
{"smiles data": "N=C(N)c1ccc(OCCCOc2ccc(C(=N)N)nc2)cc1", "val": 8.1}

List the reported microsomal CLint of each compound below.
1. N=C(N)c1ccc(CC[C@@H]2CCC[C@H](CCc3ccc(C(=N)N)nc3)C2)cc1
2. N=C(N)c1ccc(O[C@H]2CC[C@@H](Oc3ccc(C(=N)N)nc3)CC2)cc1

Result:
1. 9.5
2. 15.3

* * *

Tested on: SW1271
protocol text: CellTiter-Glo luminescent cell viability assay
Assay type: cell-based
Assign IC50 to each entry below.
One number for each entry, in nM.

{"smiles data": "N=C(N)c1ccc(OCCCCCOc2ccc(C(=N)N)cn2)cc1", "system": "SW1271", "IC50 (nM)": 1600}

Note: attention shifts to another entry.
Query: IC50; subject: N=C(N)c1ccc(OCCCCCOc2cnc(C(=N)N)nc2)cc1
Result: 3470
